# tested-target: UniProtKB P51681
# Sequence (P51681 whole entry): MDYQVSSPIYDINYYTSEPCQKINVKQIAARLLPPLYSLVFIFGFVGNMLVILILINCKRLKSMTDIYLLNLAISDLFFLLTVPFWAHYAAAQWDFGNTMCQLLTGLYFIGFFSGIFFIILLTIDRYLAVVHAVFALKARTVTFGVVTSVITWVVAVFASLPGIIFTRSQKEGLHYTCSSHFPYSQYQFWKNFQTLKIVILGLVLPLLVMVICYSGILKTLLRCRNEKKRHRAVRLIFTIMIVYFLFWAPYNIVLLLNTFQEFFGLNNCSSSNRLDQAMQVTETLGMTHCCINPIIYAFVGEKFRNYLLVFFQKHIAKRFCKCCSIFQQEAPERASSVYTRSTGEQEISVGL
# experiment-description: Binding affinity towards human CCR5 receptor in Chinese hamster ovary (CHO) cells using [125I]-MIP-1 alpha as radioligand
# Type: cell-based
measured-attribute: IC50

CN(C[C@@H](CCN1CCC2(CC1)C[S+]([O-])c1ccccc12)c1ccc(Cl)c(Cl)c1)S(C)(=O)=O (some centres undefined)    850 nM
CCN(C[C@@H](CCN1CCC2(CC1)C[S+]([O-])c1ccccc12)c1ccc(Cl)c(Cl)c1)S(=O)(=O)c1ccccc1 (some centres undefined)    130 nM
CN(C[C@@H](CCN1CCC2(CC1)C[S+]([O-])c1ccccc12)c1ccc(Cl)c(Cl)c1)S(=O)(=O)c1cccnc1 (some centres undefined)    100 nM

Continue with the next compound.
Prompt line: Find the measured IC50 of CN(C[C@@H](CCN1CCC2(CC1)C[S+]([O-])c1ccccc12)c1ccc(Cl)c(Cl)c1)S(=O)(=O)c1ccccc1Cl (some centres undefined) and report it.
Response line: 80 nM
